Sourced from patent US20030105118A1

In this section we review reported melting point values for a set of compounds.

Reference set, count: 2
{"columns": ["Compound", "melting point"],
 "data": [
  ["CN1CCC(C(=O)NCC2Cc3cccc4c(=O)[nH]c(=O)n(c34)C2)CC1 (stereo not drawn)", "246 to 250 °C (dec.)"],
  ["CN(C)c1ccccc1C(=O)NCC1Cc2cccc3c(=O)[nH]c(=O)n(c23)C1 (stereo not drawn)", "220 to 236 °C"]
]}

Now for another entry.
*Q* What does the data say about its melting point? Entry: O=c1[nH]c(=O)n2c3c(cccc13)C(CBr)CC2 (stereo not drawn)
*A* 225 °C (dec.)

---

Listed below: melting point values for each entry.

{"columns": ["Compound", "melting point"],
 "data": [
  ["O=C(NCC1Cc2cccc3c(=O)[nH]c(=O)n(c23)C1)c1ccncc1 (stereo not shown) [Example 23]", "282 to 285 °C"]
]}

*Q* Which measured melting point value corresponds to Cl.NCc1ccc(C(=O)NCC2Cc3cccc4c(=O)[nH]c(=O)n(c34)C2)cc1 (stereo not shown) ?
*A* > 300 °C

*Q* Sample Cl.NCC1CCc2cccc3c(=O)[nH]c(=O)n1c23 (stereo not shown) — what was its melting point?
*A* > 300 °C

*Q* So what's the measured melting point for this one? CN(C)Cc1ccc(C(=O)NCC2Cc3cccc4c(=O)[nH]c(=O)n(c34)C2)cc1 (stereo not shown) [Example 33]
*A* 240 to 243 °C (dec.)

*Q* Endpoint output: melting point of O=C(NCC1Cc2cccc3c(=O)[nH]c(=O)n(c23)C1)c1cnccn1 (stereo not shown) [Example 31] . Value?
*A* 255 to 257 °C (dec.)

*Q* Entry under review: Cl.NCC1Cc2cccc3c(=O)[nH]c(=O)n1c23 (stereo not shown) . Reported melting point?
*A* > 300 °C

*Q* Endpoint output: melting point of Cl.NC1Cc2cccc3c(=O)[nH]c(=O)n(c23)C1 (stereo not shown) . Value?
*A* > 300 °C

*Q* Form field: reported melting point of O=c1[nH]c(=O)n2c3c(cccc13)CCCC2 [Example 48]
*A* 192 to 196 °C

*Q* Need melting point of O=c1[nH]c(=O)n2c3c(cccc13)CC(CO)C2 (stereo not shown) [Example 5] , thanks.
*A* 252 to 254 °C

*Q* What value of melting point has been recorded for this entry: O=c1[nH]c(=O)n2c3c(cccc13)CCC2 [Example 2]
*A* 282 to 284 °C
